# TARGET_UNDER_TEST: Growth hormone secretagogue receptor type 1 (Sus scrofa)
# PROCEDURE_SUMMARY: Binding Affinity against Growth hormone secretagogue receptor of swine using [35S]MK-0677 as radioligand
RECORDED_METRIC: Ki (nM)
Write the number in nM without appending the unit.

# compound "CC(C)(N)CC(=O)N[C@@H]1CCc2ccccc2N(Cc2ccc(-c3ccccc3-c3nnn[nH]3)cc2)C1=O" ; its Ki = 63
